These data points were gathered from ChEMBL document CHEMBL1275246.

assay: Lipophilicity, log D of compound in phosphate buffer solution at pH 7.4; format: physicochemical
measurement-label: logD

Lab book: logD of CN1C[C@H](CN[11C](=O)OCc2ccccc2)C[C@@H]2c3cccc4c3c(cn4C)C[C@H]21 [[11C]-METERGOLINE] noted as 3.3
